# Assay Remarks: in vitro
# Condition Parameters: human, hela cells, % viability
Readout Kind: viability at 28.5 h, 10 µM (%)
# unit: % | format: bare number

• COC(=O)Cn1nnc(-c2ccccc2)n1 [CBK069215] = 84.8
• COc1ccc(-c2cc(C(=O)Nc3nc4ccccc4[nH]3)cnc2-c2ccc(F)cc2)cn1 [CBK036617] = 98.6
• CC1CCN(Cc2ccc(-c3nnn(CC(=O)NCc4ccc([N+](=O)[O-])cc4)n3)cc2)CC1 [CBK144176C] = 101
• O=C(COc1cccnc1)N[C@H]1C2CCCCC2[C@@H]1c1ccccc1 (stereo partly shown) [CBK282951] = 100
• COc1ccc(C(C)C)cc1-c1cnc2nc(NS(C)(=O)=O)ccc2c1 [CBK085672] = 102
• O=C(O)CCC(=O)CCC(=O)c1cccs1 [CBK264807] = 94.2

Alright, here's another compound for you.
-- ask Record request: viability at 28.5 h, 10 µM value, item O=S(=O)(Nc1ncc(Br)c2cccnc12)c1cccc(C(F)(F)F)c1 [CBK073884]
-- reply 112
